The measurements presented in this section are drawn from paper PMC9482650.

# measuredOn: T1, PCLO, Q9Y6V0
# T1 sequence (Q9Y6V0 4491-4600, limits assumed, looked up): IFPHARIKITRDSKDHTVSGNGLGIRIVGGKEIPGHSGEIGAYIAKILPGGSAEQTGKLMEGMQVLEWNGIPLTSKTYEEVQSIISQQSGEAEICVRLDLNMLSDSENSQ
# experimentDescription: holdup assay
# Design: key: below the threshold = too weak to quantify, mostly under pKd 3.1 to 4
# runConditions: plain residues with an end cap or a label only (N-terminal biotin on a linker: ado-ado)
quantityMeasured: pKd

Guide cases for pKd, answers given:
binder	quantityMeasured	result
PRISRSQSEL [CCDC134, Q9H6E4]	pKd	below the threshold
TSQESEDTYL [TBC1D10A, Q9BXI6]	pKd	below the threshold
YYKRPVQEWV [MMP24, Q9Y5R2]	pKd	below the threshold
RRLPGKETMA [GRIK2, Q13002]	pKd	below the threshold
VRNLPESEEL [MYOZ3, Q8TDC0]	pKd	below the threshold

Report pKd for every entry below.
1. AKPSRISTVV [IQSEC2, Q5JU85]
2. QPCFNKLFPL [LPXN, O60711]
3. DDPSTAETVL [ABCA7, Q8IZY2]

Resp:
1. below the threshold
2. below the threshold
3. below the threshold
